# System: Wnt activity (Wnt-responsive Sp5 promoter-luciferase reporter in SW480 cells)
# Run Description: Wnt activity screening assay: Sp5-Luc reporter gene in SW480 colon carcinoma cells
# Assay type: cell-based
# Condition Parameters: Homo sapiens
Checkbox rule: IC50 lower than 40 nM = yes (1); IC50 not lower than 40 nM = no (0).

Solved entries (count: 2):
smiles_str=CC(C)C(=O)Nc1cncc(-c2cc3c(-c4nc5c(-c6ccccc6F)cncc5[nH]4)n[nH]c3cn2)c1 label="no (0)"
smiles_str=c1cncc(-c2cncc3[nH]c(-c4n[nH]c5cnc(-c6cncc(CN7CCCCC7)c6)cc45)nc23)c1 label="no (0)"

query: Does the reported IC50 of the following compound sit strictly below 40 nM? "CCC(=O)Nc1cncc(-c2cc3c(-c4nc5c(-c6cccs6)cncc5[nH]4)n[nH]c3cn2)c1"
result: yes (1)
